Cited source for all entries: PubChem BioAssay AID504339

target: Lysine-specific demethylase 4A (Homo sapiens); assay: qHTS Assay for Inhibitors of JMJD2A-Tudor Domain; settings: AlphaScreen JMJD2A-Tudor / H3K4me3 peptide binding; series mostly up to 114 µM; note: nearly all actives have a fitted effect of over 50% in size; note: potency is the fitted concentration of half-maximal effect
Screen size: about 390,000 compounds; about 17,000 (4.4%) were called active. Inconclusive results (about 8%) are left out. The sample holds actives, similar compounds and a random draw of the others, so the mix is not that of the screen.
READOUT_KIND: Potency

Example entries and their recorded answers appear below.
compound=c1ccc(CCNC2CCCCCC2)cc1 tested_on="Lysine-specific demethylase 4A (Homo sapiens)" readout_kind=Potency result="70.8 µM (active)"
compound="CN(C)c1ccc(/C=C2\\CC3C4CC=C5CC(O)CCC5(C)C4CCC3(C)C2=O)cc1 (stereo not drawn)" tested_on="Lysine-specific demethylase 4A (Homo sapiens)" readout_kind=Potency result=inactive
compound=c1cncc(CNCCc2c[nH]c3ccccc23)c1 tested_on="Lysine-specific demethylase 4A (Homo sapiens)" readout_kind=Potency result=inactive
compound=CC(C)N(CC#CCC1(O)c2ccccc2-c2ccccc21)C(C)C tested_on="Lysine-specific demethylase 4A (Homo sapiens)" readout_kind=Potency result=inactive
compound="OC(CNC1CCCCC1)c1ccccc1 (stereo not drawn)" tested_on="Lysine-specific demethylase 4A (Homo sapiens)" readout_kind=Potency result=inactive
compound=O=C(Cc1ccc(Cl)cc1)NCCN1CCN(C(=O)Cc2ccc(Cl)cc2)CC1 tested_on="Lysine-specific demethylase 4A (Homo sapiens)" readout_kind=Potency result=inactive
compound="c1ccc(CC2CCCCN2)cc1 (stereo not drawn)" tested_on="Lysine-specific demethylase 4A (Homo sapiens)" readout_kind=Potency result=inactive
compound=CCN1CCN(C(=O)Cc2coc3cc(C)cc(C)c23)CC1 tested_on="Lysine-specific demethylase 4A (Homo sapiens)" readout_kind=Potency result=inactive
compound=Clc1cccc(Cl)c1Cl tested_on="Lysine-specific demethylase 4A (Homo sapiens)" readout_kind=Potency result=inactive
compound=C/C(CCc1c[nH]c2ccccc12)=N\O tested_on="Lysine-specific demethylase 4A (Homo sapiens)" readout_kind=Potency result=inactive

Requested field: Potency. Item: `COc1ccc(CNCCc2c[nH]c3ccccc23)cc1OC` 79.4 µM (active)

Requested field: Potency. Item: `CCC(=NCCc1ccccc1)c1c(O)n(C2CCCCC2)c(=O)[nH]c1=O` inactive

Requested field: Potency. Item: `c1cc2c(cc1CCNC1CCCCCC1)OCO2` 3.16 µM (active)

====

biological target: Lysine-specific demethylase 4A (Homo sapiens) (UniProt O75164); experiment: qHTS Assay for Inhibitors of JMJD2A-Tudor Domain; conditions: AlphaScreen JMJD2A-Tudor / H3K4me3 peptide binding; series mostly up to 114 µM; note: nearly all actives have a fitted effect of over 50% in size
Sequence (O75164 whole entry, looked up, the tested form may be a part): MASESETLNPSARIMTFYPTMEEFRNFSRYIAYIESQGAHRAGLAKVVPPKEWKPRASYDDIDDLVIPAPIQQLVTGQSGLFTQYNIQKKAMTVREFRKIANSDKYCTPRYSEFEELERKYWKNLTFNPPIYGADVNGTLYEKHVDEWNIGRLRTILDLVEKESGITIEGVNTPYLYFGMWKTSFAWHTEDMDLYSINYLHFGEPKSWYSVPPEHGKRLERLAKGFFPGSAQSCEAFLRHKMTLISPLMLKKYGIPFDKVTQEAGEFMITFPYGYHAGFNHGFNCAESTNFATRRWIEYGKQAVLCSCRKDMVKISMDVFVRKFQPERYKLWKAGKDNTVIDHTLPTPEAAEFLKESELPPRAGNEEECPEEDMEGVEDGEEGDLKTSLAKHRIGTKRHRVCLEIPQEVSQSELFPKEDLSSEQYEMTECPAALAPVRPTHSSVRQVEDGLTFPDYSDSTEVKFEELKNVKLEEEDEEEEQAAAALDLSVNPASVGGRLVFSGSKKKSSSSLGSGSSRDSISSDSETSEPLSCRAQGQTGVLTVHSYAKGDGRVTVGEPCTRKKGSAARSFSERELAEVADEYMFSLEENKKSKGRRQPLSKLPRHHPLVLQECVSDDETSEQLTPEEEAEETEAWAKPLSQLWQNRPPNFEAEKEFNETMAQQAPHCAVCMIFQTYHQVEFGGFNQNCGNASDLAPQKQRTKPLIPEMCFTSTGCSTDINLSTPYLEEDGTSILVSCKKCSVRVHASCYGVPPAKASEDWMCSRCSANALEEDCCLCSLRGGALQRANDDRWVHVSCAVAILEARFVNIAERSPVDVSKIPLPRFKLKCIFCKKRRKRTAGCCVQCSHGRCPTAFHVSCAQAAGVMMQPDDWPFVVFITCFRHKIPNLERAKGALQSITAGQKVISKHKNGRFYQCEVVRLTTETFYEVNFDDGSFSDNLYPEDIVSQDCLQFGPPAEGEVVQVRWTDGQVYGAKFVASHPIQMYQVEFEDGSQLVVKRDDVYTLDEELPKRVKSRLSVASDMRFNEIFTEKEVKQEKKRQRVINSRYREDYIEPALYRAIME
Among all 390,000 compounds or so, about 17,000 (4.4%) were called active. About 8% were inconclusive and are not listed. The call rests on the fitted dose curve; in most records, active means well fitted inhibition curve with a large enough effect; inconclusive means small, poorly fitted or top-dose-only effect; inactive means no such curve, though single readings can be large or run the other way. Only a selection was taken, and actives are over-represented in it overall.
Pick from 1 = active, 0 = inactive when you respond.

Below, 3 compounds whose answers are already recorded.
compound=O=C1NC(=O)N(c2ccccc2)C(=O)/C1=C/c1ccc([N+](=O)[O-])s1 tested_on="Lysine-specific demethylase 4A (Homo sapiens) (UniProt O75164)" class_label=1
compound="CC1CNCCN1c1ccc(Cl)cc1 (configuration not stated)" tested_on="Lysine-specific demethylase 4A (Homo sapiens) (UniProt O75164)" class_label=0
compound=COc1cccc(N2C(=O)NC(=O)/C(=C\c3cn(C)c4ccccc34)C2=O)c1 tested_on="Lysine-specific demethylase 4A (Homo sapiens) (UniProt O75164)" class_label=0

Could you kindly confirm the outcome this assay logged for `CCC/C(=N\O)c1c[nH]c2ccccc12` ? 0

Could you kindly confirm the outcome this assay logged for `Cc1ccccc1N1C(=O)NC(=O)/C(=C\c2cc(C)n(C)c2C)C1=O` ? 0

Could you kindly confirm the outcome this assay logged for `O=C1NC(=O)N(c2ccc(F)cc2)C(=O)/C1=C/c1ccc2c(c1)CCCN2Cc1ccccc1` ? 0

Could you kindly confirm the outcome this assay logged for `O=C(Nc1ccc(Cl)cc1C(=O)c1ccccc1)c1cc(Cl)cc(Cl)c1` ? 0
